src = PubChem BioAssay AID1159580

# assay_explanation: chemical genetic growth profiling, strain panel (AID 1159580);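 also: tested at 20 µM; growth read once vehicle control cultures reached saturation at 30 °C; 1 = growth at the plate median or of vehicle wells; lower values mean less growth of the strain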
# cond: S. cerevisiae deletion strains, growth OD, locus YLR357W, strain rsc2, stronger effect = lower value
The whole screen tested about 5,500 compounds, of which about 2,000 (36%) were called active. Inconclusive results (about 18%) are left out. The list shows a part of the results.
measured_endpoint: normalized growth

compound	recorded_value
CN(C)CCCN1c2ccccc2Sc2ccc(Cl)cc21	0.18
CN(C)CCCN1c2ccccc2CCc2ccc(Cl)cc21	0.974
NCC(N)C(=O)c1ccccc1 (configuration not stated)	1.03
O=P1(NCCCl)OCCCN1CCCl (configuration not stated)	0.991
CS(=O)(=O)c1ccc([C@@H](O)[C@@H](CO)NC(=O)C(Cl)Cl)cc1	1
CN(C)CCCN1c2ccccc2Sc2ccc(C(F)(F)F)cc21	1.02
O=C(OOC(=O)c1ccccc1)c1ccccc1	0.975
COC(=O)c1c(OC)cc2c(c1C)Oc1c(Cl)c(O)c(Cl)c(C)c1C(=O)O2	1.05
CCN1CCN(C(=O)NC(C(=O)N[C@@H]2C(=O)N3[C@@H]2SC(C)(C)[C@@H]3C(=O)O)c2ccccc2)C(=O)C1=O (some centres not stated)	0.957
CS(=O)(=O)Nc1ccc([N+](=O)[O-])cc1Oc1ccccc1	0.986
CCC(C)[C@H]1O[C@]2(C=C[C@@H]1C)C[C@@H]1C[C@@H](C/C=C(\C)[C@@H](OC3C[C@H](OC)C(O[C@H]4C[C@H](OC)[C@@H](O)[C@H](C)O4)[C@H](C)O3)[C@@H](C)/C=C/C=C3\CO[C@@H]4[C@H](O)C(C)=C[C@@H](C(=O)O1)[C@]34O)O2 (some centres not stated)	1.03
COC(=O)c1c(C)c2c(c(C)c1O)OC(=O)c1c(C)c(Cl)c(O)c(Cl)c1O2	0.922
CNNC	0.986
CN(C)CCCN1c2ccccc2CCc2ccccc21	1.01
NCC(=O)c1ccccc1	0.966
CC(C)CCCC(C)[C@H]1CCC2C3C(=O)C=C4C[C@@H](O)CC[C@]4(C)C3CC[C@@]21C (some centres not stated)	1.06
Cc1cc(=O)oc2cc(O)cc(O)c12	0.939
CN[C@@H]1[C@H](O)[C@H](NC)[C@H]2O[C@@]3(O)C(=O)C[C@@H](C)O[C@H]3O[C@@H]2[C@H]1O	1
NC(=O)NC(=O)Cc1ccccc1	0.949
CNCCCC12CCC(c3ccccc31)c1ccccc12	0.968
CC(=O)O[C@H]1CC[C@@]2(C)C(=CC(=O)C3C4CCC(C(C)CCCC(C)C)[C@@]4(C)CCC32)C1 (some centres not stated)	0.983
COC(=O)c1c(OC)cc2c(c1C)Oc1c(Cl)c(OC(C)=O)c(Cl)c(C)c1C(=O)O2	1.02

* * *

# assay_explanation: chemical genetic growth profiling, strain panel (AID 1159580)
# cond: S. cerevisiae deletion strains, growth OD, locus YGL078C, strain dbp3
The whole screen tested about 5,500 compounds, of which about 2,000 (36%) were called active. Another 18% or so got no clear call; they are omitted. Cut-off read from the data, not from the text of the source: active = normalized growth mostly below about 0.91 (no sharp cut-off); inconclusive = no clear call, values can overlap the other calls; inactive = mostly above about 0.92. The list shows a part of the results.
Classes used: True (active), False (inactive)

compound	category
CCCSc1ccc2nc(NC(=O)OC)[nH]c2c1	False
COC(=O)/C(=C1\OC(=O)C(c2ccccc2)=C1O)c1ccccc1	False
CC(Cc1cccc(C(F)(F)F)c1)NCCOC(=O)c1ccccc1 (stereo not drawn)	False
CC(=O)O[C@@H]1CC[C@@]2(C)C(C[C@@H](OC(C)=O)[C@@]3(C)C4=CC(=O)O[C@@H](c5ccoc5)[C@]4(C)CCC23)C1(C)C (stereo partly drawn)	False
CCCOc1ccc2nc(NC(=O)OC)[nH]c2c1	False
CC(=O)O[C@@H]1CC2C(C)(C)[C@H](O)C=C[C@]2(C)C2CC[C@]3(C)C(=CC(=O)O[C@H]3c3ccoc3)[C@@]21C (stereo partly drawn)	False
COc1ccc([C@@H]2CC(=O)c3c(O)cc(O[C@@H]4O[C@H](CO[C@H]5O[C@@H](C)[C@H](O)[C@@H](O)[C@H]5O)[C@@H](O)[C@H](O)[C@H]4O)cc3O2)cc1O	False
CC(=O)O[C@@H]1C=C[C@@]2(C)C(C[C@@H](OC(C)=O)[C@@]3(C)C4=CC(=O)O[C@@H](c5ccoc5)[C@]4(C)CCC23)C1(C)C (stereo partly drawn)	True

* * *

Reported normalized growth values follow for various compounds
# assay_explanation: chemical genetic growth profiling, strain panel (AID 1159580);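 also: tested at 20 µM; growth read once vehicle control cultures reached saturation at 30 °C; 1 = growth at the plate median or of vehicle wells; lower values mean less growth of the strain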
# cond: S. cerevisiae deletion strains, growth OD, locus YLR418C, strain cdc73, stronger effect = lower value
About 2,000 (36%) of roughly 5,500 compounds were called active. Not shown: some 18% with an inconclusive outcome. Some of the results follow.

compound	normalized growth
CC(C)CCCC(C)C1CC[C@@]2(C)C3=C(CC[C@]12C)[C@@]1(C)CC[C@H](O)C(C)(C)C1CC3 (some centres not stated)	1.04 (inactive)
CC(C)=CCCC(C)C1CC[C@@]2(C)C3=C(CC[C@]12C)C1(C)CC[C@H](O)C(C)(C)C1CC3 (some centres not stated)	0.877 (inactive)
CC(=O)O[C@H]1CC[C@@]2(C)C(C[C@@H](OC(C)=O)[C@@]3(C)C4=CC(=O)O[C@@H](c5ccoc5)[C@]4(C)CCC23)C1(C)C (some centres not stated)	0.954 (inactive)
CN(C)C1C(=O)C(C(N)=O)=C(O)C2(O)C(=O)C3=C(O)c4c(O)ccc(Cl)c4C(C)(O)C3CC12 (configuration not stated)	1.02 (inactive)
CC(=O)O[C@@H]1C=C[C@@]2(C)C(C[C@@H](OC(C)=O)[C@@]3(C)C4=CC(=O)O[C@@H](c5ccoc5)[C@]4(C)CCC23)C1(C)C (some centres not stated)	0.0929 (active)
CN(C)[C@@H]1C(=O)C(C(N)=O)=C(O)[C@@]2(O)C(=O)C3=C(O)c4c(O)ccc(Cl)c4[C@@](C)(O)[C@H]3C[C@@H]12	0.988 (inactive)
CC(=O)O[C@@H]1CC[C@@]2(C)C(C[C@@H](OC(C)=O)[C@@]3(C)C4=CC(=O)O[C@@H](c5ccoc5)[C@]4(C)CCC23)C1(C)C (some centres not stated)	0.909 (inactive)

* * *

# assay_explanation: chemical genetic growth profiling, strain panel (AID 1159580);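 also: tested at 20 µM; growth read once vehicle control cultures reached saturation at 30 °C; 1 = growth at the plate median or of vehicle wells; lower values mean less growth of the strain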
# cond: S. cerevisiae deletion strains, growth OD, locus YOR106W, strain vam3, stronger effect = lower value
Out of some 5,500 compounds screened, about 2,000 (36%) were called active. Not shown: some 18% with an inconclusive outcome. Some of the results follow.
measured_endpoint: normalized growth

> print(dat)
                                   compound  measured.endpoint  recorded.value
1  CC1(C)CC2C1CC[C@]1(C)CCC3C(C(=O)O)CC(=O)O[C@@]32C1 (stereo not given in full)  normalized growth            1.05
2  CC1(C)CC2C1CC[C@]1(CBr)CCC3C(CC(=O)O)C(=O)O[C@@]32C1 (stereo not given in full)  normalized growth            1.01
3  CC12CCC3C(CC3(C)C)C(C)(CCC1=O)O2 (stereo not given)  normalized growth           0.998
4  CN(C)[C@@H]1C(=O)C(C(N)=O)=C(O)[C@@]2(O)C(=O)C3=C(O)c4c(O)cccc4[C@@](C)(O)[C@H]3[C@H](O)[C@@H]12  normalized growth            1.02
5  C=C1c2c(Cl)ccc(O)c2C(O)=C2C(=O)[C@]3(O)C(O)=C(C(N)=O)C(=O)[C@@H](N(C)C)[C@@H]3[C@@H](O)[C@H]12  normalized growth           0.974

* * *

# assay_explanation: chemical genetic growth profiling, strain panel (AID 1159580);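 also: tested at 20 µM; growth read once vehicle control cultures reached saturation at 30 °C; 1 = growth at the plate median or of vehicle wells; lower values mean less growth of the strain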
# cond: S. cerevisiae deletion strains, growth OD, locus YJL168C, strain set2
Out of some 5,500 compounds screened, about 2,000 (36%) were called active. Roughly 18% stayed inconclusive and do not appear here. Rule as the data show it: active = normalized growth mostly below about 0.91 (no sharp cut-off); inconclusive = no clear call, values can overlap the other calls; inactive = mostly above about 0.92. Some of the results follow.
Labels: Yes (active), No (inactive)

molecule	category
CN(C)CCCN1c2ccccc2CCc2ccc(Cl)cc21	No
NC1=NCCN1CC(=O)O	No
Cc1ccc2c(c1)C1(C)CCCC(C)(C(=O)O)C1CC2 (stereo not given)	No
CC(C)CCCC(C)[C@H]1CCC2C3C(=O)C=C4C[C@@H](O)CC[C@]4(C)C3CC[C@@]21C (stereo not given in full)	No
CN(C)CCCN1c2ccccc2Sc2ccccc21	No
O=C(NCO)c1cccnc1	No
CCN(CC)CCOC(=O)C(c1ccccc1)C1CCCCC1 (stereo not given)	No
NC(=O)NC(=O)Cc1ccccc1	No
O=C(O)c1ccc(S(=O)(=O)N(Cl)Cl)cc1	No
Cc1c(C)c2c(c(C)c1O)CCC(C)(CCCC(C)CCCC(C)CCCC(C)C)O2 (stereo not given)	No
CC(CCc1ccccc1)NCC(O)c1ccc(O)c(C(N)=O)c1 (stereo not given)	No
COc1cc(C(C)=O)cc(OC)c1O	No
O=C(O)C1=CCCNC1	No
CCCN(CCC)S(=O)(=O)c1ccc(C(=O)O)cc1	No
NCC(N)C(=O)c1ccccc1 (stereo not given)	No
O=C(O)c1cc(O)c2c(c1)[C@@H]([C@H]1c3cc(C(=O)O)cc(O)c3C(=O)c3c(O[C@H]4O[C@H](CO)[C@@H](O)[C@H](O)[C@H]4O)cccc31)c1cccc(O[C@H]3O[C@H](CO)[C@@H](O)[C@H](O)[C@H]3O)c1C2=O	No
CN[C@@H]1[C@H](O)[C@H](NC)[C@H]2O[C@@]3(O)C(=O)C[C@@H](C)O[C@H]3O[C@@H]2[C@H]1O	No
Oc1cccc(O)c1	No
Nc1ccc(C(=O)O)cc1	No
CC(C)CC1NC(=O)CNC1=O (stereo not given)	No
CC(=O)c1ccc(O)c(CC=C(C)C)c1	No
Nc1ccc(S(=O)(=O)NC(=O)c2ccccc2)cc1	No
CN(C)CCCN1c2ccccc2Sc2ccc(C(F)(F)F)cc21	No
CC(C)c1ccc2c(c1)CCC1[C@](C)(CN)CCC[C@]21C (stereo not given in full)	Yes
CCCSc1ccc2nc(NC(=O)OC)[nH]c2c1	No
